TARGET ENTITY: B-RAF G466V (Homo sapiens, UniProt P15056, G466V)
Construct: expressed in transfected cells; host or cells: T-Rex 293 cells (Invitrogen #R71007)
Sequence (P15056 whole entry G466V): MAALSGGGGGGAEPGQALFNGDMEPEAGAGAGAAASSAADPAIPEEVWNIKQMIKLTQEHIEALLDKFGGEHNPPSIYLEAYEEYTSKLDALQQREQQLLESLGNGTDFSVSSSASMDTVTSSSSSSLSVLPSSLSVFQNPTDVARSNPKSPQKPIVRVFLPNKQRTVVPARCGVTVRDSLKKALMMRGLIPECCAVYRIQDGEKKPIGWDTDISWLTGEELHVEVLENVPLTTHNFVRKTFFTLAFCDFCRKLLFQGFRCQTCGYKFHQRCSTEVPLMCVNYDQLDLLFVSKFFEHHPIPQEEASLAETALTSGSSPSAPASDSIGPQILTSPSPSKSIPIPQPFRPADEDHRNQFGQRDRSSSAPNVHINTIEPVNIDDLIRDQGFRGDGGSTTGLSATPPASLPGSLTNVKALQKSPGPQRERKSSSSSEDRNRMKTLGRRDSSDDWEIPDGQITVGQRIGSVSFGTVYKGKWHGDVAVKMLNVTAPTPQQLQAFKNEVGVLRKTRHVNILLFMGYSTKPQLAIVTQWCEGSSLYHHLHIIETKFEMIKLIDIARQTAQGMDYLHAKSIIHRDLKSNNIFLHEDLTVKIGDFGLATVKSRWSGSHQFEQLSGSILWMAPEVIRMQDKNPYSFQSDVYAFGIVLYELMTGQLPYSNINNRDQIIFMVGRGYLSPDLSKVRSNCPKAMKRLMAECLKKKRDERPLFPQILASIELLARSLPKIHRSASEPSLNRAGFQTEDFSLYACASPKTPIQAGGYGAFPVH
ASSAY: Target protein degradation, assay D: T-Rex 293 cells, HA-BRAF_G466V, 384 well format
Format: cell-based
CONDITIONS USED: T-REx-293, Assay D, T-Rex 293 HA-BRAF_G466V cells, 24 hours, Examples 83-269
Method: D. T-Rex 293 Cells (384 Well Format) T-Rex 293 cells were purchased from Invitrogen (#R71007), and stably transfected with a pcDNA4/TO_HA-BRAF_G466V construct, using 400 ug Zeocin for selection. […] BRAF intensity is quantified in HCS Studio software (ThermoFisher), using a custom script, exported, analyzed using KNIME, and curve curation is performed in an ELN (Scilligence). Cell toxicity is measured via comparing number of nuclei in PROTAC treated wells to DMSO controls. […]
Below: a set of entries, each annotated with reported Dmax.

### Prompt Please give the measured Dmax for this molecule: "N#Cc1c(NS(=O)(=O)N2CC[C@@H](F)C2)ccc(F)c1Oc1ccc2ncn(-c3cccc(N4CCN(CC5CCN(c6ccc7c(c6)CN([C@H]6CCC(=O)NC6=O)C7=O)CC5)CC4)c3)c(=O)c2c1"
### Response ≥ 70%

### Prompt Recorded Dmax of "N#Cc1c(NS(=O)(=O)N2CC[C@@H](F)C2)ccc(F)c1Oc1ccc2ncn(-c3ccc(N4CCC(CN5CC6(CCC(c7ccc8c(c7)CN([C@@H]7CCC(=O)NC7=O)C8=O)CC6)C5)CC4)cc3)c(=O)c2c1" , please.
### Response 35 to 70%

### Prompt Would you mind telling me what Dmax value was observed for N#Cc1c(NS(=O)(=O)N2CC[C@@H](F)C2)ccc(F)c1Oc1ccc2ncn(-c3ccc(N4CCC(CN5CC6(CCC(c7ccc8c(c7)CN(C7CCC(=O)NC7=O)C8=O)CC6)C5)C4)cc3)c(=O)c2c1 (single isomer, unassigned) ?
### Response ≥ 70%

### Prompt Given the molecule N#Cc1c(NS(=O)(=O)N2CC[C@@H](F)C2)ccc(F)c1Oc1ccc2ncn(-c3ccc(N4CCN(c5cc(N6CCN(c7ccc8c(c7)C(=O)N(C7CCC(=O)NC7=O)C8=O)CC6)ncn5)CC4)nc3)c(=O)c2c1 (stereo partly shown) , what is its reported Dmax?
### Response 35 to 70%

###

TARGET ENTITY: B-RAF V600E (Homo sapiens, UniProt P15056, V600E)
Construct: expressed in transfected cells; host or cells: T-Rex 293 cells (Invitrogen #R71007)
Sequence (P15056 whole entry V600E): as the sequence (P15056 whole entry G466V) above, with V466G, V600E counted along it
ASSAY: Target protein degradation, assay C: T-Rex 293 cells, HA-BRAF_V600E, 384 well format
Assay type: cell-based
CONDITIONS USED: Assay C, T-Rex 293 HA-BRAF_V600E cells, 24 hours, Examples 83-269
Method: C. T-Rex 293 Cells (384 Well Format) T-Rex 293 cells were purchased from Invitrogen (#R71007), and stably transfected with a pcDNA4/TO_HA-BRAF_V600E construct, using 400 ug Zeocin for selection. […] BRAF intensity is quantified in HCS Studio software (ThermoFisher), using a custom script, exported, analyzed using KNIME, and curve curation is performed in an ELN (Scilligence). Cell toxicity is measured via comparing number of nuclei in PROTAC treated wells to DMSO controls. […]
// DC50 lookup, one value per entry

{"COMPOUND": "N#Cc1c(NS(=O)(=O)N2CC[C@@H](F)C2)ccc(F)c1Oc1ccc2ncn(-c3ccc(N4CCC5(CC4)CC(OC4CCN(c6ccc7c(c6)CN([C@H]6CCC(=O)NC6=O)C7=O)CC4)C5)cc3)c(=O)c2c1", "READOUT LABEL": "DC50", "ASSAY VALUE": "50 to 500 nM"}
{"COMPOUND": "N#Cc1c(NS(=O)(=O)N2CC[C@@H](F)C2)ccc(F)c1Oc1ccc2ncn(-c3ccn(C4CCN(CC5CCN(c6ccc7c(c6)CN([C@H]6CCC(=O)NC6=O)C7=O)CC5)CC4)n3)c(=O)c2c1", "READOUT LABEL": "DC50", "ASSAY VALUE": "50 to 500 nM"}
{"COMPOUND": "N#Cc1c(NS(=O)(=O)N2CC[C@@H](F)C2)ccc(F)c1Oc1ccc2ncn(-c3ccc(N4CCN(CC5CCN(c6ccc7c(c6)CN(C6CCC(=O)NC6=O)C7=O)CC5)CC4)cn3)c(=O)c2c1 (stereo partly drawn)", "READOUT LABEL": "DC50", "ASSAY VALUE": "50 to 500 nM"}
{"COMPOUND": "N#Cc1c(NS(=O)(=O)N2CC[C@@H](F)C2)ccc(F)c1Oc1ccc2ncn(-c3ccc(N4CCC(CN5CC6(CCN(c7ccc8c(c7)CN([C@H]7CCC(=O)NC7=O)C8=O)CC6)C5)C4)cc3)c(=O)c2c1 (stereo partly drawn)", "READOUT LABEL": "DC50", "ASSAY VALUE": "50 to 500 nM"}
{"COMPOUND": "N#Cc1c(NS(=O)(=O)N2CC[C@@H](F)C2)ccc(F)c1Oc1ccc2ncn(-c3ccc(N4CCC(CN5CC6(CCC(c7ccc8c(c7)CN([C@@H]7CCC(=O)NC7=O)C8=O)CC6)C5)CC4)cc3)c(=O)c2c1", "READOUT LABEL": "DC50", "ASSAY VALUE": "50 to 500 nM"}
{"COMPOUND": "N#Cc1c(NS(=O)(=O)N2CC[C@@H](F)C2)ccc(F)c1Oc1ccc2ncn(-c3cnc(N4CCN(c5ccc6c(c5)CN(C5CCC(=O)NC5=O)C6=O)CC4)nc3)c(=O)c2c1 (stereo partly drawn)", "READOUT LABEL": "DC50", "ASSAY VALUE": "50 to 500 nM"}
{"COMPOUND": "C[C@H]1CN(CC2CCN(c3ccc4c(c3)CN([C@H]3CCC(=O)NC3=O)C4=O)CC2)CCN1c1ccc(-n2cnc3ccc(Oc4c(F)ccc(NS(=O)(=O)N5CC[C@@H](F)C5)c4C#N)cc3c2=O)cc1", "READOUT LABEL": "DC50", "ASSAY VALUE": "5 to 50 nM"}
{"COMPOUND": "O=C1CCC(N2Cc3cc(N4CCC(CN5CCN(c6ccc(-n7cnc8ccc(Oc9c(F)ccc(NS(=O)(=O)N%10CC[C@@H](F)C%10)c9F)cc8c7=O)cc6)CC5)CC4)ccc3C2=O)C(=O)N1 (stereo partly drawn)", "READOUT LABEL": "DC50", "ASSAY VALUE": "5 to 50 nM"}

Continue with the next compound.
### Prompt Tell me the measured DC50 of N#Cc1c(NS(=O)(=O)N2CC[C@@H](F)C2)ccc(F)c1Oc1ccc2ncn(-c3ccc(N4CCN(CC5CCN(c6ccc7c(c6)CN(C6CCC(=O)NC6=O)C7=O)CC5)CC4)s3)c(=O)c2c1 (stereo partly drawn) , please.
### Response 50 to 500 nM
